tested on: Enterococcus faecalis; assay: In vitro antimicrobial activity against Enterococcus faecalis (vancomycin-resistant) was determined; format: functional
property-label: MIC (µM)

>>> df
                                   molecule                    tgt  property_label  value_qualifier  test_result
0  CCn1cc(C(=O)O)c(=O)c2cc(F)c(N3CCNCC3)cc21  Enterococcus faecalis             MIC                =          9.8
1  CCn1cc(C(=O)O)c(=O)c2cc(F)c(N3CCN(C/C(=N/O)c4ccccc4)CC3)cc21  Enterococcus faecalis             MIC                >          200
2  CCn1cc(C(=O)O)c(=O)c2cc(F)c(N3CCN(C/C(C)=N/O)CC3)cc21  Enterococcus faecalis             MIC                =           30
3  CCn1cc(C(=O)O)c(=O)c2cc(F)c(N3CCN(C/C(=N/O)c4ccc(F)cc4)CC3)cc21  Enterococcus faecalis             MIC                >          200
4  CCn1cc(C(=O)O)c(=O)c2cc(F)c(N3CCN(C/C(=N\O)c4ccc(Cl)cc4)CC3)cc21  Enterococcus faecalis             MIC                >          200
5  CCn1cc(C(=O)O)c(=O)c2cc(F)c(N3CCN(CC(=O)c4ccc(OC)cc4)CC3)cc21  Enterococcus faecalis             MIC                >          200
6  CCn1cc(C(=O)O)c(=O)c2cc(F)c(N3CCN(C/C(=N\O)c4ccc(OC)cc4)CC3)cc21  Enterococcus faecalis             MIC                =         3.23

----------
test system: Klebsiella pneumoniae; assay: In vitro antimicrobial activity against Klebsiella pneumoniae was determined; format: functional
property-label: MIC (µM)

In [3]: df
Out[3]:
                                   molecule  property_label  test_result
0  CCn1cc(C(=O)O)c(=O)c2cc(F)c(N3CCN(C/C(=N\O)c4ccc(Cl)cc4)CC3)cc21             MIC         0.21
1  CCn1cc(C(=O)O)c(=O)c2cc(F)c(N3CCN(CC(=O)c4ccc(OC)cc4)CC3)cc21             MIC        0.053
2  CCn1cc(C(=O)O)c(=O)c2cc(F)c(N3CCNCC3)cc21 [NORFLOXACIN]             MIC        0.041
3  CCn1cc(C(=O)O)c(=O)c2cc(F)c(N3CCN(C/C(=N/O)c4ccccc4)CC3)cc21             MIC         0.22
4  CCn1cc(C(=O)O)c(=O)c2cc(F)c(N3CCN(C/C(=N/O)c4ccc(F)cc4)CC3)cc21             MIC         0.21
5  C=C1CC(CN2CCN(c3cc4c(cc3F)c(=O)c(C(=O)O)cn4CC)CC2)(c2ccccc2)OC1=O (stereo not drawn)             MIC         12.4
6  CCn1cc(C(=O)O)c(=O)c2cc(F)c(N3CCN(C/C(=N\O)c4ccc(OC)cc4)CC3)cc21             MIC        0.027
7  CCn1cc(C(=O)O)c(=O)c2cc(F)c(N3CCN(C/C(C)=N/O)CC3)cc21             MIC         0.13

----------
tested on: Pseudomonas aeruginosa; test: In vitro antimicrobial activity against Pseudomonas aeruginosa was determined; type: functional
// MIC lookup, one value per entry
property-label: MIC

>>> df
                                   compound                     tgt  property_label  test_result
0  CCn1cc(C(=O)O)c(=O)c2cc(F)c(N3CCN(C/C(=N/O)c4ccccc4)CC3)cc21  Pseudomonas aeruginosa             MIC      13.8 µM
1  CCn1cc(C(=O)O)c(=O)c2cc(F)c(N3CCN(CC(=O)c4ccc(OC)cc4)CC3)cc21  Pseudomonas aeruginosa             MIC      13.4 µM
2  CCn1cc(C(=O)O)c(=O)c2cc(F)c(N3CCN(C/C(=N\O)c4ccc(Cl)cc4)CC3)cc21  Pseudomonas aeruginosa             MIC     > 200 µM
3  CCn1cc(C(=O)O)c(=O)c2cc(F)c(N3CCN(C/C(=N/O)c4ccc(F)cc4)CC3)cc21  Pseudomonas aeruginosa             MIC     > 200 µM
4  CCn1cc(C(=O)O)c(=O)c2cc(F)c(N3CCN(C/C(=N\O)c4ccc(OC)cc4)CC3)cc21  Pseudomonas aeruginosa             MIC      25.9 µM
5  CCn1cc(C(=O)O)c(=O)c2cc(F)c(N3CCNCC3)cc21 [NORFLOXACIN]  Pseudomonas aeruginosa             MIC      1.22 µM
6  CCn1cc(C(=O)O)c(=O)c2cc(F)c(N3CCN(C/C(C)=N/O)CC3)cc21  Pseudomonas aeruginosa             MIC        16 µM
7  C=C1CC(CN2CCN(c3cc4c(cc3F)c(=O)c(C(=O)O)cn4CC)CC2)(c2ccccc2)OC1=O (stereo not drawn)  Pseudomonas aeruginosa             MIC     > 200 µM

----------
tested on: Escherichia coli; experiment: In vitro antimicrobial activity against Escherichia coli was determined; format: functional
property-label: MIC (µM)

In [3]: df
Out[3]:
                                   molecule  test_result
0  CCn1cc(C(=O)O)c(=O)c2cc(F)c(N3CCN(C/C(=N/O)c4ccc(F)cc4)CC3)cc21         6.38
1  CCn1cc(C(=O)O)c(=O)c2cc(F)c(N3CCN(CC(=O)c4ccc(OC)cc4)CC3)cc21         0.83
2  CCn1cc(C(=O)O)c(=O)c2cc(F)c(N3CCN(C/C(=N\O)c4ccc(OC)cc4)CC3)cc21         1.62
3  CCn1cc(C(=O)O)c(=O)c2cc(F)c(N3CCN(C/C(=N\O)c4ccc(Cl)cc4)CC3)cc21         6.16
4  C=C1CC(CN2CCN(c3cc4c(cc3F)c(=O)c(C(=O)O)cn4CC)CC2)(c2ccccc2)OC1=O (stereo not drawn)         98.9
5  CCn1cc(C(=O)O)c(=O)c2cc(F)c(N3CCN(C/C(C)=N/O)CC3)cc21         0.51
6  CCn1cc(C(=O)O)c(=O)c2cc(F)c(N3CCN(C/C(=N/O)c4ccccc4)CC3)cc21         0.86
7  CCn1cc(C(=O)O)c(=O)c2cc(F)c(N3CCNCC3)cc21 [NORFLOXACIN]         0.63

----------
This listing pairs compounds with measured MIC.
assay: In vitro antimicrobial activity against […] (erythromycin and ampicillin-resistant) was determined; assay type: functional; conditions: Streptococcus pneumoniae
property-label: MIC (µM)

>>> print(df.to_string())
                                   molecule  property_label  value_qualifier  test_result
0  CCn1cc(C(=O)O)c(=O)c2cc(F)c(N3CCNCC3)cc21             MIC                =         19.6
1  CCn1cc(C(=O)O)c(=O)c2cc(F)c(N3CCN(C/C(=N/O)c4ccc(F)cc4)CC3)cc21             MIC                >          200
2  CCn1cc(C(=O)O)c(=O)c2cc(F)c(N3CCN(C/C(=N\O)c4ccc(Cl)cc4)CC3)cc21             MIC                >          200
3  CCn1cc(C(=O)O)c(=O)c2cc(F)c(N3CCN(C/C(=N/O)c4ccccc4)CC3)cc21             MIC                >          200
4  CCn1cc(C(=O)O)c(=O)c2cc(F)c(N3CCN(C/C(C)=N/O)CC3)cc21             MIC                =           30
5  CCn1cc(C(=O)O)c(=O)c2cc(F)c(N3CCN(C/C(=N\O)c4ccc(OC)cc4)CC3)cc21             MIC                =           13
6  CCn1cc(C(=O)O)c(=O)c2cc(F)c(N3CCN(CC(=O)c4ccc(OC)cc4)CC3)cc21             MIC                >          200
